- TARGET DESC: T1, p2S (p2 peptide biotinylated through its free cysteine) (human, also: biotinylated (maleimide PEO2-biotin) on one of the two Cys, which one not given here)
- T1 construct: The peptide has two cysteines; also called b-p2S
- T1 peptide: RPRYACCPGWKRT
- ASSAY EXPLANATION: SPR (BIAcore-2000), IgG injected over immobilized p2S peptide
Where no end group is shown, it is not given here.
OBSERVABLE: koff (s⁻¹)
The response must be a number in s⁻¹ with no trailing unit.

# input Would you mind telling me what koff value was observed for 4F11.v14 IgG (antibody, name in Kabat numbering, V domains shown, IgG; Kabat numbering) VH: EIQLVESGGGLVQPGGSLRLSCAASGHTFTTYGMSWVRQAPGKGLEWMGWINTHSGVPTYADDFKGRFTFSLDTSASTAYLQMNSLRAEDTAVYFCARLGSSAVDYWGQGTLVTVSS VL: DIQLTQSPSSLSASVGDRVTITCKASQSVDYDGDSYMSWYQQKPGKAPKLLIYGASNLESGVPSRFSGSGSGTDFTLTISSLQPEDFATYYCQQNNEDPYTFGQGTKVEIKR ?
# output 0.000984
